- PROCEDURE TEXT: Stability in mouse liver microsomes assessed as parent compound remaining measured after 10 mins
- Assay type: ADME, Microsome
- MEASUREMENT CONDITIONS: read-out: Stability
Measured remaining at 10 min by item
Write it as a number; the unit % goes unstated.

{"QUERY SMILES": "CCNC(=O)c1cnc(Nc2ccc3ncsc3c2)cc1NC(C)C", "VALUE UNIT": "%", "remaining at 10 min": 45}
{"QUERY SMILES": "CCCNC(=O)c1cnc(Nc2ccc3ncsc3c2)cc1NC(C)C", "VALUE UNIT": "%", "remaining at 10 min": 32}
{"QUERY SMILES": "CC(C)Nc1cc(Nc2ccc3ncsc3c2)ncc1C(=O)NC[C@@H](F)C(C)(C)O", "VALUE UNIT": "%", "remaining at 10 min": 86}
{"QUERY SMILES": "CC(C)Nc1cc(Nc2ccc3ncsc3c2)ncc1C(=O)NCCC(C)(C)O", "VALUE UNIT": "%", "remaining at 10 min": 68}
{"QUERY SMILES": "CC(C)Nc1cc(Nc2nc3ccnn3cc2F)ncc1C(=O)NC[C@@H](F)C(C)(C)O", "VALUE UNIT": "%", "remaining at 10 min": 89}

remaining at 10 min lookup needed for `CNC(=O)c1cnc(Nc2ccc3ncsc3c2)cc1N[C@@H](c1ccccc1)[C@H](O)CO` , thanks. 22

Give its remaining at 10 min value. Item: `CC(C)(O)[C@H](F)CNC(=O)c1cnc(Nc2ccc3ncsc3c2)cc1NC1CC1` 89

Given the compound `Cc1nc2ccc(Nc3cc(NC(C)C)c(C(=O)NC[C@@H](F)C(C)(C)O)cn3)cc2s1` , what is its reported remaining at 10 min? 78

Given `CCCCNC(=O)c1cnc(Nc2ccc3ncsc3c2)cc1NC(C)C` , state its recorded remaining at 10 min. 31

For the compound `CC(C)Nc1cc(Nc2ccc3ncsc3c2)ncc1C(=O)NCC(F)(F)C(C)(C)O` , what remaining at 10 min is on record? 61

What value of remaining at 10 min has been reported for the following compound? `CC(C)Nc1cc(Nc2ccn3nccc3n2)ncc1C(=O)NC[C@@H](F)C(C)(C)O` 89

###

Papp A→B: recorded values
- PROCEDURE TEXT: Permeability across apical to basolateral side in human Caco2 cells
- MEASUREMENT CONDITIONS: Caco-2

See these solved cases before continuing.
{"QUERY SMILES": "CC(C)Nc1cc(Nc2ccc3ncsc3c2)ncc1C(=O)NCCc1ccc(S(N)(=O)=O)cc1", "Papp A→B": "< 1.5 ×10⁻⁶ cm/s"}
{"QUERY SMILES": "CNC(=O)c1cnc(Nc2ccc3ncsc3c2)cc1N[C@H](CO)Cc1ccccc1", "Papp A→B": "< 1.5 ×10⁻⁶ cm/s"}

Please look up its Papp A→B: `CNC(=O)c1cnc(Nc2ccc3ncsc3c2)cc1N[C@@H](c1ccccc1)[C@H](O)CO` < 1.5 ×10⁻⁶ cm/s

###

- PROCEDURE TEXT: Stability in human liver microsomes assessed as parent compound remaining
- Assay type: ADME, Microsome
READOUT: Stability
Include the unit right after the number.

{"QUERY SMILES": "CC(C)Nc1cc(Nc2ccn3nccc3n2)ncc1C(=O)NC[C@@H](F)C(C)(C)O", "READOUT": "Stability", "OBSERVED RESULT": "100%"}
{"QUERY SMILES": "CC(C)Nc1cc(Nc2ccn3nccc3c2)ncc1C(=O)NC[C@@H](F)C(C)(C)O", "READOUT": "Stability", "OBSERVED RESULT": "78%"}

Read the next record carefully.
Form field: reported Stability of `CC(C)Nc1cc(Nc2ccc3ncsc3c2)ncc1C(=O)NCCC(C)(C)O` 79%
